Attribution: paper PMC10726920

Test: Plasma pharmacokinetics, Cycle 1 (LC-MS, non-compartmental)
Format: in vivo, human
Details: human, plasma, po, 3 mg, Cycle 1 Day 8; 3 mg daily oral; read-out: T max, Median (range)
assay_metric: Tmax (h)

- CC(C)n1nc(-c2ccc3oc(N)nc3c2)c2c(N)ncnc21: 1.2

---

Assay: Plasma pharmacokinetics, Cycle 1 (LC-MS, non-compartmental)
Assay type: in vivo, human
Settings: human, plasma, po, 3 mg, Cycle 1 Day 1; 3 mg daily oral; read-out: Half‐life, Median (range) (converted)
assay_metric: half-life (h)

• CC(C)n1nc(-c2ccc3oc(N)nc3c2)c2c(N)ncnc21 = 7.1

---

Assay: Plasma pharmacokinetics, Cycle 1 (LC-MS, non-compartmental)
Assay type: in vivo, human
Conditions: human, plasma, po, 3 mg, Cycle 1 Day 1; 3 mg daily oral; read-out: C max, Median (range)
Description: Blood samples were obtained on Days 1, 2, and 8 of Cycle 1. […] plasma concentrations were measured using liquid chromatography‐mass spectroscopy. Plasma concentration‐time data were analyzed by standard methods using WinNonlin. […] Plasma concentration-time data were analyzed by standard non-compartmental methods using WinNonlin (Pharsight, Mountain View, CA). […] Oral steady-state clearance (ClSS/F) was calculated using the equation, ClSS = Dose/AUCτ.
assay_metric: Cmax (ng/mL)

• CC(C)n1nc(-c2ccc3oc(N)nc3c2)c2c(N)ncnc21 = 26.5
